Experiment: NCI Yeast Anticancer Drug Screen. Data for the cln2 rad14 strain (AID 165);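 also: 0% = growth equal to vehicle treated cultures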
Details: S. cerevisiae cln2 rad14 strain, at 5.0 µM (retest, dose inferred, filed as 0.5), stronger effect = higher value
Compounds without any hit were thinned out: in the full panel of roughly 79,000, 15% have a hit. Calls of active or inactive are those of the source. Rule as the data show it: active = growth inhibition above about 70%; inactive = the rest.

>  <compound>
N=C(N)SC1c2ccccc2-c2ccc(N)cc21 (stereo not drawn)

>  <growth inhibition>
-4% (inactive)

$$$$
>  <compound>
COC(=O)C1=Cc2cc3c(cc2[C@H](c2ccc4c(c2)OCO4)C1C(=O)OC)OCO3 (stereo partly drawn)

>  <growth inhibition>
0% (inactive)

$$$$
>  <compound>
CC(C)=CC[P+](CCCCCC[P+](CC=C(C)C)(c1ccccc1)c1ccccc1)(c1ccccc1)c1ccccc1

>  <growth inhibition>
-5% (inactive)

$$$$
>  <compound>
c1ccc2c(c1)[nH]c1c[n+]3c(c[n+]12)[nH]c1ccccc13

>  <growth inhibition>
-7% (inactive)

$$$$
>  <compound>
Cc1ccc(S(=O)(=O)Oc2c([N+](=O)[O-])cc(C)cc2[N+](=O)[O-])cc1

>  <growth inhibition>
-1% (inactive)

$$$$
>  <compound>
c1ccc2c(B(c3cccc4ccccc34)c3cccc4ccccc34)cccc2c1

>  <growth inhibition>
3% (inactive)

$$$$
>  <compound>
C1CCC(CC[N+]23CC[N+](CCC4CCCC4)(CC2)C3)C1

>  <growth inhibition>
2% (inactive)

$$$$
>  <compound>
O=C(N/C(=C\c1ccc2c(c1)OCO2)c1nc2ccccc2s1)c1ccccc1

>  <growth inhibition>
10% (inactive)

$$$$
>  <compound>
Fc1ccc2[nH]ccc2c1

>  <growth inhibition>
9% (inactive)

$$$$
>  <compound>
S=C(S)NCCN1CCNCC1

>  <growth inhibition>
-3% (inactive)

$$$$
>  <compound>
O=c1cc(-c2cccc(OCc3ccccc3)c2)[nH]c2cc3c(cc12)OCO3

>  <growth inhibition>
0% (inactive)

$$$$
>  <compound>
COc1cc2c(cc1OC)-c1nc(Nc3ccccc3)sc1CC2

>  <growth inhibition>
5% (inactive)

$$$$
>  <compound>
CC(C)=CCC/C(C)=C/CC/C(C)=C/CC/C=C(\C)CC/C=C(\C)CCC[N+](C)(C)[O-]

>  <growth inhibition>
5% (inactive)

$$$$
>  <compound>
Oc1ccc2c(ccc3ccccc32)c1

>  <growth inhibition>
-3% (inactive)

$$$$
>  <compound>
COc1cc2c(cc1O)CCCCC2

>  <growth inhibition>
-2% (inactive)

$$$$
>  <compound>
C=CCOc1ccc(/C=N/NC(N)=S)cc1

>  <growth inhibition>
6% (inactive)

$$$$
>  <compound>
c1cc2c3c(c1)[I+]c1cccc(c1-3)[I+]2

>  <growth inhibition>
24% (inactive)

$$$$
>  <compound>
CC(NCCO)c1ccc2ccccc2c1 (stereo not drawn)

>  <growth inhibition>
3% (inactive)

$$$$
>  <compound>
CCOC(=O)C1CN(CCCCCCN2CC(C(=O)OCC)C(=O)C2=O)C(=O)C1=O (stereo not drawn)

>  <growth inhibition>
4% (inactive)

$$$$
>  <compound>
COc1cc2c(c(OC)c1OC)-c1ccc(O)c(=O)cc1C(N=Cc1ccccc1)CC2 (stereo not drawn)

>  <growth inhibition>
-7% (inactive)

$$$$
>  <compound>
CCN(CC)Cc1cc(Nc2c3ccccc3nc3c4ccccc4n(C)c23)ccc1O

>  <growth inhibition>
0% (inactive)

$$$$
>  <compound>
COc1ccc(C=O)cc1C[P+](c1ccccc1)(c1ccccc1)c1ccccc1

>  <growth inhibition>
13% (inactive)

$$$$
>  <compound>
COC12C(COC(N)=O)C3=C(C(=O)C(C)=C(N)C3=O)N1CC1C2N1C(=O)c1ccc(Cl)cc1 (stereo not drawn)

>  <growth inhibition>
3% (inactive)

$$$$
